The origin of these recorded values is PubChem BioAssay (NCI).

I'd appreciate it if you could supply GI50 values for the items below.
# System: SW-620 colon
# Assay Details: NCI tumour cell line growth inhibition, 48 h

Guide cases for GI50, answers given:
[
  {
    "Compound": "CN1CCN(Cc2ccc(NC(=O)c3nc4ccc5[nH]ncc5c4c4c3CCCC4)cc2C(F)(F)F)CC1",
    "GI50": "892 nM"
  },
  {
    "Compound": "C=C(C)[C@@H]1CC[C@]2(COC(C)=O)CC[C@]3(C)[C@H](CC[C@@H]4[C@@]5(C)CCCN(C(C)=O)C(C)(C)[C@@H]5CC[C@]43C)[C@@H]12",
    "GI50": "1750 nM"
  }
]

Please report the measured GI50 for CC(=O)OCC1OC(OC2CCCC[Si](c3ccccc3)(c3ccccc3)O2)C(OC(C)=O)C(OC(C)=O)C1OC(C)=O (stereo not drawn) 53000 nM

----------
# Tested on: UACC-257 melanoma
# Assay Details: NCI tumour cell line growth inhibition, 48 h
Readout Type: TGI

Guide cases for TGI, answers given:
[
  {
    "Compound": "COC(=O)CCC(C)[C@H]1CCC2C3C(C[C@H](OC(C)=O)[C@@]21C)[C@@]1(C)CCC2(C[C@H]1C[C@H]3OC(C)=O)OOC1(CCCCCCC1)OO2 (some centres undefined)",
    "TGI": "> 100 µM"
  },
  {
    "Compound": "O=[N+]([O-])c1cccc2nc3ccccc3c(NCCO)c12",
    "TGI": "0.00384 µM"
  },
  {
    "Compound": "COc1ccc(/C=N/Nc2nc(N)nc(N3CCCC3)c2C#N)cc1",
    "TGI": "44.7 µM"
  }
]

Batch: TGI for all items listed.
1. O=C(NNC(=O)C1CCN(S(=O)(=O)c2ccc(-c3ccccc3)cc2)CC1)c1ccc(C(F)(F)F)cc1
2. CC1(C)N([O-])[N+](=O)C1(C)Br (centres undefined)
3. Cc1cc(I)cc(CN(C)CCN(C)C)c1O
4. CCC#CCCCCCCCCC(F)C(=O)O (centres undefined)
5. N#Cc1c(-c2ccccc2)n([O-])c2ccccc2[n+]1=O
6. Cc1ccc(-c2c(C#N)c(N)[nH]c(=S)c2C#N)cc1

1: > 50 µM; 2: > 100 µM; 3: > 62 µM; 4: > 100 µM; 5: 40.1 µM; 6: > 100 µM

Batch: TGI for all items listed.
1. COc1ccc(-c2cc3c(OC)c(OC)c(OC)cc3oc2=O)cc1
2. Cc1ccc2c(=O)cc(-c3cccc(Cl)c3)[nH]c2n1
3. O=C(c1ccco1)N(Cc1cccnc1)C(=S)N(Cc1cccnc1)C(=O)c1ccco1
4. CCCCCCCCNC(=O)C1=C(C)NC(C)=C(C(=O)NCCCCCCCC)C1
5. C=CCOC1=CC(=O)c2ccccc2C1=O
6. CCN(CCCNC(=O)Cc1cc(=O)oc2cc(N(C)C)ccc12)CCNc1ccnc2cc(Cl)ccc12

["> 100 µM", "> 100 µM", "31.7 µM", "> 100 µM", "3.72 µM", "3.65 µM"]

Batch: TGI for all items listed.
1. CN(C)c1ccc(C=NC23CC4CC(CC(C4)C2)C3)cc1
2. O=C1Nc2ccccc2S/C1=C\c1ccc(C(F)(F)F)cc1
3. Cc1nc2c(=O)n(C)c(=O)n(C)c2o1
4. OCC(CO)C1c2cccc3ccc4cccc1c4c23
5. O=C(COc1ccc(OCC(=O)N2C(=O)CN(c3ccc(Cl)cc3)C2=S)cc1)N1C(=O)CN(c2ccc(Cl)cc2)C1=S
6. COc1c(-c2nc3nc(N4CCN(C)CC4)ccc3[nH]2)cc(OC)c2c1nc(CO)n2C

1: > 100 µM; 2: > 100 µM; 3: > 100 µM; 4: > 100 µM; 5: 93.2 µM; 6: > 100 µM

----------
# System: HCC-2998 colon
# Assay Details: NCI tumour cell line growth inhibition, 48 h
I'd appreciate it if you could supply TGI values for the items below.
One number for each entry, in µM.

[
  {
    "Test Smiles": "COc1ccc(-c2cnoc2-c2ccc(OC)cc2O)cc1",
    "TGI / µM": 29.8
  }
]

Now consider the entry below.
Please report the measured TGI for "N#Cc1c(-c2ccccc2)n([O-])c2ccccc2[n+]1=O" 34

----------
// each record: one item and its GI50 for U251 CNS

Guide cases for GI50, answers given:
[
  {
    "Compound": "CCCn1c2c(c3ccccc3c1=O)C(=O)c1cc3c(cc1-2)OCO3",
    "GI50": "> 100000 nM"
  },
  {
    "Compound": "Cc1ccc(NS(=O)(=O)c2ccc(-c3cnc(C4CC4)o3)cc2)cc1C",
    "GI50": "458 nM"
  },
  {
    "Compound": "CC1=C(C(=O)Nc2ccc(Cl)c(Cl)c2)C(c2ccccc2Cl)NC(=S)N1 (stereo unspecified)",
    "GI50": "11900 nM"
  }
]

Batch: GI50 for all items listed.
1. O=C(C(Br)C(Br)c1ccccc1)C(Br)C(Br)c1ccccc1 (stereo unspecified)
2. N#Cc1c(-c2ccccc2)n([O-])c2ccccc2[n+]1=O
3. CC(C)(C)CC(C)(C)c1ccc(OCCSC(=N)N)cc1

["1890 nM", "24700 nM", "1570 nM"]

----------
# System: SK-MEL-28 melanoma
# Assay Details: NCI tumour cell line growth inhibition, 48 h
Readout Type: GI50

Guide cases for GI50, answers given:
[
  {
    "Molecule": "C=C1C(=O)O[C@H]2[C@H]1CC/C(COC(=O)NCc1[nH]nc3ccccc13)=C\\CC[C@@]1(C)O[C@@H]21",
    "Tested Target": "SK-MEL-28 melanoma",
    "GI50": "1.69 µM"
  },
  {
    "Molecule": "CC(C)(C)CC(C)(C)c1ccc(OCCSC(=N)N)cc1",
    "Tested Target": "SK-MEL-28 melanoma",
    "GI50": "1.7 µM"
  },
  {
    "Molecule": "O=CC(NC(=O)N(CCCl)N=O)C(O)C(O)C(O)CO (stereo not given)",
    "Tested Target": "SK-MEL-28 melanoma",
    "GI50": "> 1250 µM"
  },
  {
    "Molecule": "COc1cc(-c2cncn2-c2ccc(-c3nc4ccc(F)cc4s3)cc2)ccc1F",
    "Tested Target": "SK-MEL-28 melanoma",
    "GI50": "35.1 µM"
  }
]

Please report the measured GI50 for "Cc1ccc(NS(=O)(=O)c2ccc(-c3cnc(C4CC4)o3)cc2)cc1C" 1.26 µM

----------
# Test system: SF-539 CNS
# Assay Details: NCI tumour cell line growth inhibition, 48 h
Readout Type: TGI (µM)
Numbers only, in µM.

[
  {
    "Test Smiles": "COc1ccc(-c2nc3ccc([N+](=O)[O-])cc3c(=O)[nH]2)cc1",
    "Data Value": 29.7
  },
  {
    "Test Smiles": "Cc1ccc2c(NCCCN(C)C)c3c(C)nn(C)c3nc2c1",
    "Data Value": 19.6
  }
]

Now consider the entry below.
Please report the measured TGI for "COc1ccc(/C=C2\CS(=O)(=O)C/C(=C\c3ccc(OC)cc3)C2=O)cc1" 4.28

----------
# Test system: HCT-116 colon
# Assay Details: NCI tumour cell line growth inhibition, 48 h; in the data active = GI50 below about 0.43 µM; inactive = the rest
Outcomes you can answer with include only these: 1 (active), 0 (inactive)

Take a look at these entries with their results.
[
  {
    "Test Smiles": "Nc1nc2cc(-c3ccc4ncc(C(=O)N5CCOCC5)n4c3)ccc2o1",
    "Class Assignment": 0
  },
  {
    "Test Smiles": "COc1ccc(/C=N/Nc2nc(N)nc(N3CCCC3)c2C#N)cc1",
    "Class Assignment": 0
  }
]

Let us examine a further case.
Kindly provide the recorded test outcome for the following molecule: "CCCCC/C=C/C(=O)CCc1ccc(O)c(OC)c1" 0

----------
# System: SF-539 CNS
# Assay Details: NCI tumour cell line growth inhibition, 48 h; in the data active = GI50 below about 0.43 µM; inactive = the rest
Outcomes you can answer with include only these: active, inactive

[
  {
    "Compound": "Cc1ccc(NS(=O)(=O)c2ccc(-c3cnc(C4CC4)o3)cc2)cc1C",
    "Tested Target": "SF-539 CNS",
    "Class Assignment": "active"
  },
  {
    "Compound": "CC(C)(C)CC(C)(C)c1ccc(OCCSC(=N)N)cc1",
    "Tested Target": "SF-539 CNS",
    "Class Assignment": "inactive"
  },
  {
    "Compound": "N#Cc1c(-c2ccccc2)n([O-])c2ccccc2[n+]1=O",
    "Tested Target": "SF-539 CNS",
    "Class Assignment": "inactive"
  }
]

Kindly provide the recorded test outcome for the following compound: "COc1cccc(-n2ncc3c(N/N=C/c4ccc(F)cc4)ncnc32)c1" inactive

Kindly provide the recorded test outcome for the following compound: "Cn1cc(C2=C(c3cn(C)c4cc(C(=O)O)ccc34)C(=O)NC2=O)c2ccccc21" inactive

Kindly provide the recorded test outcome for the following compound: CCCCN(CCCC)CC(O)c1ccc(OCc2ccccc2)c2ccccc12 (stereo not given) inactive

Kindly provide the recorded test outcome for the following compound: "COC(=O)c1cc2cc(-c3ccc(OC)cc3)cnc2[nH]1" inactive

Kindly provide the recorded test outcome for the following compound: CN(C)c1ccc(O)c2c1CC1CC3C(N(C)C)C(=O)C(C(N)=O)=C(O)C3(O)C(=O)C1=C2O (stereo not given) inactive

Kindly provide the recorded test outcome for the following compound: "COC(=O)[C@@H]1CCCN1C(=O)[C@@H]1CCCN1C(=O)[C@H](Cc1ccccc1)NC(=S)Nc1cc(C(F)(F)F)cc(C(F)(F)F)c1" inactive

Kindly provide the recorded test outcome for the following compound: "COc1ccc2c(c1)CC[C@@H]1[C@@H]2CC[C@]2(C)C(c3ccsc3)=C(/C=C/C(=O)c3ccccc3)C[C@@H]12" inactive
